Tested on: P. falciparum (NF54)
assay.info: Antimalarial [3H]-hypoxanthine incorporation assay
Format: cell-based, Plasmodium falciparum
cond: Plasmodium falciparum, NF54
readout.type: pIC50
Please express pIC50 as -log10 of the molar concentration.

response.value for CN(CCCCCl)P(=O)(OCc1ccccc1)C(Cl)(Cl)P(=O)(OCc1ccccc1)N(C)CCCCCl (stereo not shown) [Chlorobenzyl analog] (field: pIC50) = 5.23

---

Tested on: A549 NSCLC cells
assay.info: Trypan blue cell count assay, A549
cond: Homo sapiens, A549, 24 h, read-out: EC50 (decreased cell number by 50% compared to control)
pEC50: −log10 of the molar value.
readout.type: pEC50

A549 NSCLC cells pEC50 of CN(CCCCCl)P(=O)(OCCc1ccc([N+](=O)[O-])cc1)C(Cl)(Cl)P(=O)(OCCc1ccc([N+](=O)[O-])cc1)N(C)CCCCCl (stereo not shown) is ~5.00

---

Tested on: A549 NSCLC cells
assay.info: MTS cell proliferation assay, A549
Type: cell-based
cond: A549, MTS, 48 h; read-out: IC50 (decreased cell proliferation by 50% compared to control)
Method: Cell proliferation was determined using the CellTiter 96 Aqueous One Solution Cell Proliferation Assay MTS assay. A549 NSCLC cells were plated at 1.5×10^3 cells per well in flat bottom 96 well plates in 99 μL of media and allowed to adhere overnight. […] Absorbance at 490 nm was determined using a SpectraMax M2 (Molecular Devices) plate reader. The percent cell proliferation was calculated by converting the experimental absorbance to percentage of control, which was then plotted vs. drug concentration. […]
readout.type: IC50
Please don't drop the unit; write it after the number.

response.value for CN(CCCCCl)P(=O)(OCc1ccc([N+](=O)[O-])cc1)C(Cl)(Cl)P(=O)(OCc1ccc([N+](=O)[O-])cc1)N(C)CCCCCl (stereo not shown) [compound 14] (field: IC50) = 5.2 µM

---

Test system: A549
assay.info: Cyclized zoledronate intermediate vs zoledronic acid, normoxia/hypoxia, A549
Type: cell-based
cond: Homo sapiens, A549, 72 h, Hypoxia
readout.type: pIC50
Please express pIC50 as -log10 of the molar concentration.

response.value for O=P(O)(O)C(O)(Cn1ccnc1)P(=O)(O)O [Zoledronate, zoledronate] (field: pIC50) = 3.69

---

Test system: PIP3 (prostate) cancer cell line
assay.info: MTS cell proliferation assay, PIP3
Format: cell-based
readout.type: EC50 (µM)
Write the number in µM without appending the unit.

response.value for CN(CCCCCl)P(=O)(OCc1ccc([N+](=O)[O-])cc1)C(Cl)(Cl)P(=O)(OCc1ccc([N+](=O)[O-])cc1)N(C)CCCCCl (stereo not drawn) (field: EC50) = 3

// moving on: another record for EC50
response.value for O=P(O)(O)C(O)(Cn1ccnc1)P(=O)(O)O [Zoledronate, zoledronate] (field: EC50) = 78

---

System: A549 NSCLC cells
assay.info: Trypan blue cell count assay, A549
cond: read-out: EC50 (decreased cell number by 50% compared to control); A549, trypan blue, 72 h; listed as Bisphosphonate Prodrug
readout.type: EC50
Please don't drop the unit; write it after the number.

response.value for CN(CCCCCl)P(=O)(CP(=O)(OCc1ccc([N+](=O)[O-])cc1)N(C)CCCCCl)OCc1ccc([N+](=O)[O-])cc1 (stereo not shown) (field: EC50) = 24 µM
